Task for the reader: assign each of the following variants its reported polymerase ribozyme fitness (log ratio).
B1: TPR t1 (parent)
chain: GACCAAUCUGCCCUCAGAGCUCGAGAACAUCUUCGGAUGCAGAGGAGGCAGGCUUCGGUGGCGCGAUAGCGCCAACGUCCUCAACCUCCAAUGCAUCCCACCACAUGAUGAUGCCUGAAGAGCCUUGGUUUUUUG

# Variants of: B1
# Assay notes: polymerase ribozyme fitness, log enrichment relative to wild type (log ratio); higher = more active; in vitro selection for triplet polymerase activity
Numbers only.

Answered cases to consult:
[[record]]
mutation_string = "A2U A50U"
readout_label = "polymerase ribozyme fitness (log ratio)"
recorded_number = -3.14

[[record]]
mutation_string = "C86U A91G C98U"
readout_label = "polymerase ribozyme fitness (log ratio)"
recorded_number = -2.63

[[record]]
mutation_string = "G10U C13U G61U"
readout_label = "polymerase ribozyme fitness (log ratio)"
recorded_number = -0.215

[[record]]
mutation_string = "G61A C89G C101G A121G"
readout_label = "polymerase ribozyme fitness (log ratio)"
recorded_number = -0.932

[[record]]
mutation_string = "C73U U81G C82G C123A"
readout_label = "polymerase ribozyme fitness (log ratio)"
recorded_number = 0.626

[[record]]
mutation_string = "C4G C12U G60U C89G A111U"
readout_label = "polymerase ribozyme fitness (log ratio)"
recorded_number = -5.57


Next up:
Report polymerase ribozyme fitness (log ratio) for G44A C89U C123U C124U please.
1.33

Reference source: the RNAGym collection of RNA variant scans (doi:10.1073/pnas.2313332121)
